System: NHBE cells
assayProcedure: Biolog metabolic array: substrate use by NHBE cells with or without CA09 infection
Type: cell-based, human
reportedConditions: Virus: CA09-infected NHBE cells, MOI 1; Biolog PMM2; 3 hr
measuredEndpoint: 590 nm absorbance normalized to zero hour (substrate use), 3 hr
One number for each entry.

Below: 2 molecules and their reported 590 nm absorbance normalized to zero hour (substrate use), 3 hr.
| molecule | targetOrTestSystem | recordedResult |
| --- | --- | --- |
| O=C(O)CC(O)(CC(=O)O)C(=O)O [Citric Acid] | NHBE cells | 2.21 |
| O=C(O)CC(CC(=O)O)C(=O)O [Tricarballylic Acid] | NHBE cells | 0.29 |

Give one value of 590 nm absorbance normalized to zero hour (substrate use), 3 hr per listed molecule.
1. OC[C@H]1O[C@@H](O[C@@H]2[C@@H](CO)OC(O)(CO)[C@H]2O)[C@H](O)[C@@H](O)[C@H]1O (mixture of isomers) [Lactulose]
2. O=C(CO)[C@@H](O[C@H]1O[C@H](CO)[C@@H](O)[C@H](O)[C@H]1O)[C@H](O)[C@H](O)CO [Turanose]
3. C[C@@H](O)[C@H](O)[C@H](O)[C@@H](O)C=O [D-Fucose]
4. OC[C@H]1O[C@@H](O[C@H]2[C@H](O)[C@@H](O)[C@H](O)O[C@@H]2CO)[C@H](O)[C@@H](O)[C@@H]1O [D-Cellobiose]
5. O=C(O)CCC(=O)C(=O)O [a-Keto-Glutaric Acid]

2.56
0.34
0.67
2.38
0.45

Give one value of 590 nm absorbance normalized to zero hour (substrate use), 3 hr per listed molecule.
1. O=C[C@@H](O)[C@H](O)[C@H](O)CO [D-Arabinose]
2. OC[C@@H](O)[C@@H](O)[C@@H](O)CO [Adonitol]
3. O=c1[nH]cnc2c1ncn2[C@@H]1O[C@H](CO)[C@@H](O)[C@H]1O [Inosine]
4. CCC(=O)O [Propionic Acid]
5. OC[C@@H](O)[C@@H](O)[C@H](O)[C@@H](O)CO [D-Sorbitol]
6. CC(O)CO (stereo not drawn) [1,2-Propanediol]
7. CCC(=O)C(=O)O [a-Keto-Butyric Acid]
8. O=C(CO)[C@@H](O)[C@H](O)[C@@H](O)CO [L-Sorbose]

1.03
0.29
2.23
0.83
3.10
2.83
0.30
0.26

Give one value of 590 nm absorbance normalized to zero hour (substrate use), 3 hr per listed molecule.
1. OC[C@@]12OC[C@@H](O1)[C@@H](O)[C@@H](O)[C@@H]2O [Sedoheptulosan]
2. NCCO [2-Aminoethanol]
3. COC(=O)C(C)=O [Methyl Pyruvate]

1: 1.46; 2: 2.38; 3: 2.60

* * *

Please go through the items and note down their 590 nm absorbance normalized to zero hour (substrate use), 8 hr.
Tested on: NHBE cells
assayProcedure: Biolog metabolic array: substrate use by NHBE cells with or without CA09 infection
Assay type: cell-based, human
reportedConditions: Control (uninfected) NHBE cells, 8 hr
Give bare numbers.

| compound | targetOrTestSystem | recordedResult |
| --- | --- | --- |
| O=C(O)C[C@H](O)C(=O)O | NHBE cells | 1.35 |
| CCC(=O)C(=O)O | NHBE cells | 1.34 |
| COC(=O)CCC(=O)O [Mono Methyl Succinate] | NHBE cells | 1.09 |

Give one value of 590 nm absorbance normalized to zero hour (substrate use), 8 hr per listed compound.
1. OC[C@H]1OC(O)[C@@H](O)[C@@H](O)[C@@H]1O (stereo partly drawn)
2. CO[C@H]1O[C@H](CO)[C@@H](O)[C@H](O)[C@H]1O [a-Methyl-D-Glucoside]
3. CO[C@@H]1OC[C@@H](O)[C@H](O)[C@H]1O [b-Methyl-D-Xyloside]
4. OC[C@H]1O[C@H](OC[C@H]2O[C@H](O[C@]3(CO)O[C@H](CO)[C@@H](O)[C@@H]3O)[C@H](O)[C@@H](O)[C@@H]2O)[C@H](O)[C@@H](O)[C@H]1O
5. OC[C@@H](O)[C@@H](O)[C@H](O)[C@@H](O)CO
6. O=C[C@H](O)[C@@H](O)[C@H](O)[C@H](O)C(=O)O
7. OC[C@@H](O)[C@H](O)[C@@H](O)CO
8. OC[C@@H](O)[C@@H](O[C@H]1O[C@H](CO)[C@@H](O)[C@H](O)[C@H]1O)[C@H](O)[C@@H](O)CO

1. 8.13
2. 0.74
3. 4.02
4. 1.82
5. 5.56
6. 1.83
7. 1.49
8. 4.77

Give one value of 590 nm absorbance normalized to zero hour (substrate use), 8 hr per listed compound.
1. O=C(CO)[C@@H](O)[C@H](O)[C@H](O)CO
2. O=C(O)CCCO [g-Hydroxy-Butyric Acid]
3. O=C(O)CC(CC(=O)O)C(=O)O
4. OC[C@@H](O)[C@@H](O)CO
5. Nc1ncnc2c1ncn2[C@@H]1O[C@H](CO)[C@@H](O)[C@H]1O
6. OC[C@H]1O[C@@H](O[C@@H]2[C@@H](CO)OC(O)(CO)[C@H]2O)[C@H](O)[C@@H](O)[C@H]1O (mixture of isomers)

1: 3.38; 2: 1.94; 3: 0.54; 4: 3.84; 5: 3.10; 6: 4.04

What value of measured 590 nm absorbance normalized to zero hour (substrate use), 8 hr is listed for O=c1[nH]cnc2c1ncn2[C@@H]1O[C@H](CO)[C@@H](O)[C@H]1O ?
4.46

The measurements presented in this section are drawn from patent US11083725B2.
